I'd appreciate it if you could supply normalized growth values for the items below.
Test: chemical genetic growth profiling, strain panel (AID 1159580);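 also: tested at 20 µM; growth read once vehicle control cultures reached saturation at 30 °C; 1 = growth at the plate median or of vehicle wells; lower values mean less growth of the strain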
Conditions: S. cerevisiae deletion strains, growth OD, locus YDR502C, strain sam2, hits give low values
Hit rate of the full screen: of about 5,500 compounds, about 2,000 (36%) were called active. Not shown: some 18% with an inconclusive outcome. The list shows a part of the results.
Answer using only a numeral; do not append any unit.

Form: molecule = CCC(=O)O[C@H]1CCC2C3CCC4=CC(=O)CC[C@]4(C)C3CC[C@@]21C (stereo partly drawn) ; normalized growth = 0.919

Form: molecule = CCCCCCCCCCCCCCCC[N+](C)(C)C ; normalized growth = 0.0598

Form: molecule = COc1ccc2c3c1O[C@H]1C[C@@H](O)C=C[C@@]31CCN(C)C2 ; normalized growth = 1.01

Form: molecule = NCC1CCC(C(=O)O)CC1 (stereo not drawn) ; normalized growth = 0.996

Form: molecule = COC1=CC(=O)C[C@@H](C)[C@]12Oc1c(Cl)c(OC)cc(OC)c1C2=O ; normalized growth = 0.999

Form: molecule = COC1=C(OC)C(=O)C(C/C=C(\C)CC/C=C(\C)CC/C=C(\C)CC/C=C(/C)CC/C=C(\C)CC/C=C(\C)CC/C=C(\C)CC/C=C(\C)CC/C=C(\C)CCC=C(C)C)=C(C)C1=O ; normalized growth = 0.989

Form: molecule = S=c1nc[nH]c2nc[nH]c12 ; normalized growth = 0.991

Form: molecule = CC1(C)OC(=O)NC1=O ; normalized growth = 0.994

Form: molecule = CCOC(=O)[C@H](CCc1ccccc1)N[C@H]1CCc2ccccc2N(CC(=O)O)C1=O ; normalized growth = 0.985

Form: molecule = COP(=O)(OC)OC=C(Cl)Cl ; normalized growth = 0.993

Form: molecule = CC(=O)NC1SCCC1=O (stereo not drawn) ; normalized growth = 0.999

Form: molecule = CO[C@H]1[C@H](O)[C@H](O[C@H]2CC[C@]3(C)C4CC[C@]5(C)C(C6=CC(=O)OC6)CC[C@]5(O)C4CC[C@@H]3C2)O[C@@H](C)[C@@H]1O (stereo partly drawn) ; normalized growth = 1

Form: molecule = C[C@]12CCC(=O)C=C1CCC1C2CC[C@@]2(C)C1CC[C@@H]2O (stereo partly drawn) ; normalized growth = 1.01
